Reference source for all entries: the supplement of paper PMC11208160

PROTOCOL_DESCRIPTION: recombinant barcode read abundance after kanamycin selection (control-corrected) (log10(CPM+1)); higher = more efficient recombination; sequences stand for … in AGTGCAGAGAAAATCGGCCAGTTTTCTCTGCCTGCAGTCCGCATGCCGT…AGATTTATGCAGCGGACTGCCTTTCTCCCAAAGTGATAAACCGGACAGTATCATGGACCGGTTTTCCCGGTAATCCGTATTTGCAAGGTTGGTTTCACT; site = the 11-nt target
# recombinant barcode read abundance (log10) annotations
I'd appreciate a reply containing only the number, no unit.

In the examples that follow, each entry is paired with its recorded recombinant barcode read abundance (log10).
INSERT INTO measurements (sequence_string, value) VALUES
  ('CTAGACACTTGGGTTCTAACCTGTTGCCT (site CTAGACACTAG)', 0.612),
  ('CTACGCTCTTGGGTTCTAACCTGTTGCAC (site CTACGATCTGT)', 0.145),
  ('AGAAACACTTGGGTTCTAACCTGTTGCCT (site AGAAACACTAG)', 1.34),
  ('CTGGCCACTTGGGTTCTAACCTGTTGCCT (site CCGGCCACTAG)', 0.0832),
  ('AGGTGCTCTTGGGTTCTAACCTGTTGCCT (site AGGTGCTCTAG)', 1.6);

# evaluate next
Input TGAGAGACTTGGGTTCTAACCTGTTGCGT (site ATGAGTCCTTT) . Output recombinant barcode read abundance (log10): 0.0989

====

PROTOCOL_DESCRIPTION: recombinant UMI read abundance after kanamycin selection (control-corrected) (log10(CPM+1)); higher = more efficient recombination; extreme values may be limits of the assay; sequences stand for … in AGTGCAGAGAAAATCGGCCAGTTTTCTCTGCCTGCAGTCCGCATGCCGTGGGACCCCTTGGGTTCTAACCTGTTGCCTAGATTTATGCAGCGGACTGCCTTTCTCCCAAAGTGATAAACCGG…AGGTTGGTTTCACT; site = the 11-nt donor
Property: recombinant UMI read abundance (log10); scope: individual sequences
// no unit string in output, number only

INSERT INTO results (sequence_string, value) VALUES
  ('CCATAGCCATGGACCGGTTTTCCCGGTAATCCGTATTTGCC (site CCCTAGCCTGG)', 0);

// recombinant UMI read abundance (log10) value for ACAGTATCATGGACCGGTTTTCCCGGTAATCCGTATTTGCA (site AAAGAATCTTG) : 1.57

Value of measured recombinant UMI read abundance (log10) for the entry TTAGCTGCATGGACCGGTTTTCCCGGTAATCCGTATTTGTC (site TTAGCTGCTAA) : 0.00712

// field: recombinant UMI read abundance (log10); key: CGGTATCCATGGACCGGTTTTCCCGGTAATCCGTATTTGAT (site CGGTATCCTAT) ; value = 0.734

Looking up ATCCAGGCATGGACCGGTTTTCCCGGTAATCCGTATTTGAG (site ATCCATGCTCT) , I see its recombinant UMI read abundance (log10) listed as 0.382

The value of recombinant UMI read abundance (log10) measured for the sequence CACCCTACATGGACCGGTTTTCCCGGTAATCCGTATTTGAG (site CCCCCTACTCT) turned out to be 0.0201

Entry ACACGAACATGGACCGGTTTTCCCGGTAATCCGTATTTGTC (site ACACGAACTGG) — recorded recombinant UMI read abundance (log10) = 1.74
